# study.system: human 11βHSD1 enzyme (Homo sapiens, UniProt P28845)
# Construct: baculovirus expressed N terminal 6-His tagged full length human 11βHSD1 enzyme; 6-His (N); made in house
# Sequence (P28845 whole entry): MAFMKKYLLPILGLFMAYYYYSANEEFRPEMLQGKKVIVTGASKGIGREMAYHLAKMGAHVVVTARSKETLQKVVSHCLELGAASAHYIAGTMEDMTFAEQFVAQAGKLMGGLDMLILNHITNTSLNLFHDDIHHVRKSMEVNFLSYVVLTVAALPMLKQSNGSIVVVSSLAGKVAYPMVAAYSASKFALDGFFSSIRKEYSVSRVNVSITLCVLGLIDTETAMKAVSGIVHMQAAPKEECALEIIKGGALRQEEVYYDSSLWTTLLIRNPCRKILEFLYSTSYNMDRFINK
# experimental.protocol: 11βHSD1 cortisone to cortisol conversion, competitive HTRF assay
# Format: biochemical
# cond: human 11-βHSD; test concentration of 30 μM of compound
observable: inhibition at 30 µM (%)

> print(dat)
                                    compound                              study.system  assay.value
 1  C[C@@H]1CN(c2ncc(C(=O)N[C@H]3C4CC5CC3C[C@@](O)(C5)C4)c(C3CCC3)n2)C[C@@H](C)O1  human 11βHSD1 enzyme (Homo sapiens, UniProt P28845)          102
 2  O=C(N[C@H]1C2CC3CC1C[C@@](O)(C3)C2)c1cnc(N2CC[S+]([O-])CC2)nc1C1CCCCC1  human 11βHSD1 enzyme (Homo sapiens, UniProt P28845)         97.8
 3  CS(=O)(=O)N1CCN(c2ncc(C(=O)N[C@H]3C4CC5CC3C[C@@](O)(C5)C4)c(C3CCCC3)n2)CC1  human 11βHSD1 enzyme (Homo sapiens, UniProt P28845)           95
 4  C[C@@H]1CN(c2ncc(C(=O)N[C@H]3C4CC5CC3C[C@@](O)(C5)C4)c(C3CC3)n2)C[C@@H](C)O1  human 11βHSD1 enzyme (Homo sapiens, UniProt P28845)         92.7
 5  CCCSc1ncc(C(=O)N[C@H]2C3CC4CC2C[C@@](O)(C4)C3)c(N2CCN(C(C)=O)CC2)n1  human 11βHSD1 enzyme (Homo sapiens, UniProt P28845)          101
 6  O=C(N[C@H]1C2CC3CC1C[C@@](O)(C3)C2)c1cnc(OC2CCC2)nc1C1CCC1  human 11βHSD1 enzyme (Homo sapiens, UniProt P28845)           96
 7  CCCSc1nc(N2CCC[C@@H](CC(=O)O)C2)ncc1C(=O)NC1CCCCC1  human 11βHSD1 enzyme (Homo sapiens, UniProt P28845)         97.6
 8  O=C(c1cnc(N2CCOCC2)nc1C1CC1)N1CCC(c2cccnc2)C1 (stereo not shown)  human 11βHSD1 enzyme (Homo sapiens, UniProt P28845)         89.7
 9  CC(C)(C)c1ncncc1C(=O)N[C@H]1C2CC3CC1C[C@@](O)(C3)C2  human 11βHSD1 enzyme (Homo sapiens, UniProt P28845)         88.3
10  O=C(N[C@H]1C2CC3CC1C[C@@](O)(C3)C2)c1cnc(N2CCS(=O)(=O)CC2)nc1C1CCCCC1  human 11βHSD1 enzyme (Homo sapiens, UniProt P28845)           94
11  O=C(N[C@H]1C2CC3CC1C[C@@](O)(C3)C2)c1cnc(NC2CCC2)nc1C1CCC1  human 11βHSD1 enzyme (Homo sapiens, UniProt P28845)         97.8
12  O=C(N[C@H]1C2CC3CC1C[C@@](O)(C3)C2)c1cnc(N2CC(F)(F)C2)nc1C1CC1  human 11βHSD1 enzyme (Homo sapiens, UniProt P28845)         92.5
13  O=C(N[C@H]1C2CC3CC1C[C@@](O)(C3)C2)c1cnc(N[C@H]2CCOC2)nc1C1CCCC1  human 11βHSD1 enzyme (Homo sapiens, UniProt P28845)         98.8
14  CC(C)Nc1ncc(C(=O)N[C@H]2C3CC4CC2C[C@@](O)(C4)C3)c(C2CCC2)n1  human 11βHSD1 enzyme (Homo sapiens, UniProt P28845)          103
15  CC(C)Oc1ncc(C(=O)N[C@H]2C3CC4CC2C[C@@](O)(C4)C3)c([C@@H]2CCCO2)n1  human 11βHSD1 enzyme (Homo sapiens, UniProt P28845)           95
16  COc1nc(OC2CCC2)ncc1C(=O)N[C@H]1C2CC3CC1C[C@@](O)(C3)C2  human 11βHSD1 enzyme (Homo sapiens, UniProt P28845)          102
17  COc1ncc(C(=O)N[C@H]2C3CC4CC2C[C@@](O)(C4)C3)c(C2CC2)n1  human 11βHSD1 enzyme (Homo sapiens, UniProt P28845)         97.5
18  CNc1ncc(C(=O)N[C@H]2C3CC4CC2C[C@@](O)(C4)C3)c(C2CCCC2)n1  human 11βHSD1 enzyme (Homo sapiens, UniProt P28845)         93.7
19  O=C(N[C@H]1C2CC3CC1C[C@@](O)(C3)C2)c1cnc(N2CCC2)nc1C1CC1  human 11βHSD1 enzyme (Homo sapiens, UniProt P28845)          102
20  O=C(N[C@H]1C2CC3CC1C[C@@](O)(C3)C2)c1cnc(N2CC3CC2CS3(=O)=O)nc1C1CC1  human 11βHSD1 enzyme (Homo sapiens, UniProt P28845)          100
21  O=C(N[C@H]1C2CC3CC1C[C@@](O)(C3)C2)c1cnc(C2CC2)nc1C1CCCC1  human 11βHSD1 enzyme (Homo sapiens, UniProt P28845)           92
22  NC1(c2ncc(C(=O)N[C@H]3C4CC5CC3C[C@@](O)(C5)C4)c(C3CCCC3)n2)CC1  human 11βHSD1 enzyme (Homo sapiens, UniProt P28845)          101
23  COCCN1CCN(c2ncc(C(=O)N[C@H]3C4CC5CC3C[C@@](O)(C5)C4)c(C3CCC3)n2)CC1  human 11βHSD1 enzyme (Homo sapiens, UniProt P28845)         95.7
24  O=C(N[C@H]1C2CC3CC1C[C@@](O)(C3)C2)c1cnc(NC2CC2)nc1C1CC1  human 11βHSD1 enzyme (Homo sapiens, UniProt P28845)         90.2
25  O=C(N[C@H]1C2CC3CC1C[C@@](O)(C3)C2)c1cnc(NC2CCC2)nc1[C@H]1CCCO1  human 11βHSD1 enzyme (Homo sapiens, UniProt P28845)          103
26  Cc1ncc(C(=O)N[C@H]2C3CC4CC2C[C@@](O)(C4)C3)c(-c2ccccc2Cl)n1  human 11βHSD1 enzyme (Homo sapiens, UniProt P28845)         95.5
27  CC(C)Oc1ncc(C(=O)N[C@H]2C3CC4CC2C[C@@](O)(C4)C3)c(C2CCCO2)n1 (stereo partly shown)  human 11βHSD1 enzyme (Homo sapiens, UniProt P28845)          105
28  O=C(NC1C2CC3CC(C2)CC1C3)c1cnc(N2CCOCC2)nc1C1CC1 (stereo not shown)  human 11βHSD1 enzyme (Homo sapiens, UniProt P28845)          112
29  COCc1nc(N2C[C@@H](C)O[C@@H](C)C2)ncc1C(=O)N[C@H]1C2CC3CC1C[C@@](O)(C3)C2  human 11βHSD1 enzyme (Homo sapiens, UniProt P28845)         98.6
30  COCCN1CCN(c2ncc(C(=O)N[C@H]3C4CC5CC3C[C@](O)(C5)C4)c(C3CCCC3)n2)CC1  human 11βHSD1 enzyme (Homo sapiens, UniProt P28845)           95
31  Cc1ncc(C(=O)N[C@H]2C3CC4CC2C[C@@](O)(C4)C3)c(C2CC(F)(F)C2)n1  human 11βHSD1 enzyme (Homo sapiens, UniProt P28845)         91.7

----------
# study.system: human 11βHSD1 enzyme (Homo sapiens, UniProt P28845)
# Construct: baculovirus expressed N terminal 6-His tagged full length human 11βHSD1 enzyme; 6-His (N)
# experimental.protocol: 11βHSD1 cortisone to cortisol conversion, competitive HTRF assay
# cond: recombinant N terminal 6-His tagged full length human 11βHSD1; cortisone 160 nM; 25 minutes at 37° C.
observable: IC50 (nM)

Some molecules with recorded IC50:
> print(dat)
                                   molecule                              study.system  units.text  assay.value
1  CCCSc1nc(N2CCN(C(=O)N(C)C)CC2)ncc1C(=O)NC1C2CC3CC(C2)CC1C3 (centres unmarked) [Example 29]  human 11βHSD1 enzyme (Homo sapiens, UniProt P28845)          nM           13
2  CCCSc1nc(N2CCC[C@@H](CC(=O)OC)C2)ncc1C(=O)NC1CCCCC1 [Example 19]  human 11βHSD1 enzyme (Homo sapiens, UniProt P28845)          nM           14
3  O=C(N[C@H]1C2CC3CC1C[C@@](O)(C3)C2)c1cncnc1C1CC1 [Example 3]  human 11βHSD1 enzyme (Homo sapiens, UniProt P28845)          nM          370
4  Cc1ncc(C(=O)NC2C3CC4CC(C3)CC2C4)c(C2CC2)n1 (centres unmarked) [Example 12]  human 11βHSD1 enzyme (Homo sapiens, UniProt P28845)          nM           45

[1] CCCSc1ncc(C(=O)N[C@H]2C3CC4CC2C[C@@](O)(C4)C3)c(N(C)C)n1 [Example 18]
[2] CSc1ncc(C(=O)N[C@H]2C3CC4CC2C[C@@](O)(C4)C3)c(C2CC2)n1 [Example 11]
API: POST /compare with 1 and 2 ; response names the item with higher IC50. Your answer should be the label of the entry you select.
2

Data origin: patent US20090264401A1
